assayedSystem: P-gp (Homo sapiens)
Sequence (P08183 whole entry): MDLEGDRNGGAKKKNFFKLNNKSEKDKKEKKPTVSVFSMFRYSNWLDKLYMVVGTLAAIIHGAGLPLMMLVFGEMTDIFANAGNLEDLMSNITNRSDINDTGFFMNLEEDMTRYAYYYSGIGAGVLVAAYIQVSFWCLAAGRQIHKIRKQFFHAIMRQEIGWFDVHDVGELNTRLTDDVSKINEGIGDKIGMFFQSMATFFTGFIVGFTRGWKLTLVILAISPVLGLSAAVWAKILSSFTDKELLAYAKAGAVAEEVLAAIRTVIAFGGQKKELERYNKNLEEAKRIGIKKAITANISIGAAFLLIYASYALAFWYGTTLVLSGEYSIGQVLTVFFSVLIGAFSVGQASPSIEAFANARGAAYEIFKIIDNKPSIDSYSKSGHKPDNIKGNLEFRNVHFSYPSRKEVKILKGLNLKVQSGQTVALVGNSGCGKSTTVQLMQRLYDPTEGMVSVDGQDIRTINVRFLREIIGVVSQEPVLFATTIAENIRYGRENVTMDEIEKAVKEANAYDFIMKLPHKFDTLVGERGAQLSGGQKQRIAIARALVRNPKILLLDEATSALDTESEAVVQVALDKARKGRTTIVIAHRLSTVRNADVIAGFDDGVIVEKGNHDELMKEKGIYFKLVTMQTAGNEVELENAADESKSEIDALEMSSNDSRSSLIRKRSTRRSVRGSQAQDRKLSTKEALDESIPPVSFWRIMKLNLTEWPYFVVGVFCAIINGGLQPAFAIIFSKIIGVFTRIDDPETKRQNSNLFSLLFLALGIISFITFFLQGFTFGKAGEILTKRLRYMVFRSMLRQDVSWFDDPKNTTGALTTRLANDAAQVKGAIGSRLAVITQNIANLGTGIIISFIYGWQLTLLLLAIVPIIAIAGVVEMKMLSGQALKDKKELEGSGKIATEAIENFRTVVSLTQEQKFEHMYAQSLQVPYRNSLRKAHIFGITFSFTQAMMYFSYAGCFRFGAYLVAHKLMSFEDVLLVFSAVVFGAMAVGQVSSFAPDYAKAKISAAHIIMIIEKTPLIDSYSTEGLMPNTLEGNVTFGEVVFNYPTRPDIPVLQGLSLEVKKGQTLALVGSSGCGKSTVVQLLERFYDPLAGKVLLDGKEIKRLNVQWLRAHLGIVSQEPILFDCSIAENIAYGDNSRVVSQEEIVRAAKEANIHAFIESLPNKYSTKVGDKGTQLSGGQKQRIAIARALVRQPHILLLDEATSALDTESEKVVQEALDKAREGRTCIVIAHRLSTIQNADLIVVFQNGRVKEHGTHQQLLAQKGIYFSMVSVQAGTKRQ
assayProcedure: Rhodamine 123 intracellular accumulation assay in K562/Dox (flow cytometry)
studyConditions: Rho123 accumulation, K562/Dox
metricName: MEC (minimum effective concentration) (µM)
Numeric answer only, unit µM assumed.

compound | MEC (minimum effective concentration) [µM]
C=C(C)[C@@H]1CC[C@]2(COC(=O)N3CCN(C)CC3)CC[C@]3(C)[C@H](CC[C@@H]4[C@@]5(C)CC[C@H](O)C(C)(C)[C@@H]5CC[C@]43C)[C@@H]12 [Compound 6i] | 0.39

// next entry
Kindly note the recorded MEC (minimum effective concentration) for C=C(C)[C@@H]1CC[C@]2(COC(=O)Nc3cc(OC)c(OC)c(OC)c3)CC[C@]3(C)[C@H](CC[C@@H]4[C@@]5(C)CC[C@H](O)C(C)(C)[C@@H]5CC[C@]43C)[C@@H]12 [Compound 6a] , which is 1.56
